Provenance of the data: paper PMC4988710

assayed-target: SOX9 HMG (Homo sapiens, UniProt P48436 110-184)
Sequence (P48436 110-184): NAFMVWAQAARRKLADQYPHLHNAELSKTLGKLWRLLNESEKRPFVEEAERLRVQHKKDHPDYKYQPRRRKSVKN
assay-text: EMSA; Hill 1.6 ± 0.5; 10 mM sodium phosphate pH 6.0, 100 mM NaCl, 5 mM EDTA, on ice 30 min (1 h for 32P titrations); 9 nM DNA for Kd, 2 uM DNA for SYBR Green EMSA
stated-conditions: protein: recombinant; tags: 6xHis; label: 32P 5'; blunt
measured-parameter: pKd
Remember, pKd is on a log scale: it is -log10 of the molar concentration.

Noted for S9WT (dsDNA) DNA 1: GGGTTAACAGAACAATGGAATCTGGTAGA DNA 2: TCTACCAGATTCCATTGTTCTGTTAACCC : its pKd reads 7.00
